System: Candida albicans
MEASUREMENT PARAMETERS: Concentration 32 ug.mL-1; ASSAY_TEST Inhibition of Fungal Growth; detection method Absorption (OD530)
Description: Antifungal activity against Candida albicans ATCC 90028 (CO-ADD:FG_001); MIC in YNB media using NBS plates, by OD630
Results with a measured potency or affinity are listed apart.
Below, each entry is listed with its recorded Inhibition.
# value in %; strip the unit string

Example entries and their recorded answers appear below.
SMI: O=C(CSc1nnc2c(=O)n(-c3ccccc3)ccn12)Nc1ccc(F)cc1F
UOM: %
Inhibition: 1.82
--
SMI: COc1cccc(-n2ccn3c(SCc4cccc(F)c4)nnc3c2=O)c1
UOM: %
Inhibition: 1.25
--
SMI: Cc1cc(C)cc(N(Cc2ccc(F)cc2)S(=O)(=O)c2cccn3cnnc23)c1
UOM: %
Inhibition: 1.02

Qu. So what does the record say about Inhibition for `CCCCOc1ccc(-c2cc3c4nnc(SCC(=O)Nc5cccc(C)c5C)n4ccn3n2)cc1` ?
Ans. -0.05

Qu. Look up Inhibition for this molecule: `COc1ccc(C(=O)CSc2nnc3c(=O)n(-c4ccc(F)cc4)ccn23)cc1OC`
Ans. 4.19

Qu. Quick check: Inhibition of `COc1ccc(-c2cc3c4nnc(CCC(=O)NCc5ccccc5Cl)n4ccn3n2)cc1` ?
Ans. 1.3

Qu. # lookup: Inhibition of `COc1ccccc1CNC(=O)Cn1nc2c(N3CCCCCC3)nccn2c1=O`
Ans. 3.98

Qu. What measured Inhibition goes with `COc1cccc(Oc2nccn3c(=O)n(CC(=O)Nc4ccc(C)cc4Cl)nc23)c1` ?
Ans. 4.48

Qu. What does the data say about its Inhibition? Entry: `COc1cccc(-n2ccn3c(SCC(=O)N4CCN(c5ccccc5F)CC4)nnc3c2=O)c1`
Ans. 0.16

Qu. Find the recorded Inhibition belonging to `CCOC(=O)N1CCN(C(=O)CCc2nnc3c4cc(-c5ccc(F)cc5)nn4ccn23)CC1` and report it.
Ans. 2.97
